# credit: the OligoGym collection

Each record here notes measured calcium oscillation score.
Target: Tau
Assay: rat primary cortical neurons, FLIPR, 25 uM ASO
Bases are written 5' to 3'; sugars and linkages follow in the same order, as letters with counts (s phosphorothioate, o phosphodiester; PS: all linkages phosphorothioate). The collection does not say whether C is 5-methylated. l = locked nucleic acid (LNA); d = 2'-deoxy (DNA)

Completed entries (count: 3):
Provide calcium oscillation score value for the following sequence: TCATCTTTTCTAGAACC (sugars l4 d10 l3, PS)
70.9 % of control

Provide calcium oscillation score value for the following sequence: TGATACCCTTCCTCAG (sugars l2 d12 l2, PS)
4.76 % of control

Provide calcium oscillation score value for the following sequence: AAGCAGGTTAAGTGATTAAC (sugars l3 d14 l3, PS)
12.9 % of control

More entries:
Provide calcium oscillation score value for the following sequence: TATTTCCAAATTCACTTTTA (sugars ldlllddddddddddlldll, PS)
145 % of control

Provide calcium oscillation score value for the following sequence: TAATTATTAAATCTTCTCTT (sugars l4 d12 l4, PS)
60.1 % of control

Provide calcium oscillation score value for the following sequence: CCTCCCACCTATCAGTCA (sugars l1 d15 l2, PS)
46.2 % of control

Provide calcium oscillation score value for the following sequence: CTAAAGTCCCAGGTC (sugars l3 d9 l3, PS)
40.5 % of control

Provide calcium oscillation score value for the following sequence: CCCTGAAACCATTAAC (sugars l3 d9 l4, PS)
70.2 % of control
